Reported mortality at 400 ppm is given for each of the following molecules.
- Tested on: Twospotted spider mites (Tetranychus urticae Koch)
- Measurement notes: Mite/insect screen, SM
- Type: in vivo
- Details: Tetranychus urticae, percent mortality; SAW, SM & MA RATE 400 PPM; read-out: SM RESULTS %
Quantity measured: mortality at 400 ppm

[[record]]
molecule = "Fc1cc(F)c2nccc(NCCc3ccc(Br)cc3)c2c1"
value = "0%"

[[record]]
molecule = "Fc1cccc2c(NCCCc3ccc(-c4ccccc4)cc3)ccnc12"
value = "80%"

[[record]]
molecule = "FC(F)(F)c1ccc2c(NCCc3ccc(Cl)cc3Cl)ccnc2c1"
value = "0%"

[[record]]
molecule = "Clc1ccc(CCNc2ccnc3cc(Cl)cc(Cl)c23)cc1"
value = "0%"

[[record]]
molecule = "Cc1cc(C)c2nccc(NCCC3=CCCCC3)c2c1"
value = "0%"

[[record]]
molecule = "Clc1ccc(CCNc2ccnc3cc(Cl)ccc23)cc1"
value = "0%"

[[record]]
molecule = "COc1ccc(CCNc2ccnc3cc(C(F)(F)F)ccc23)cc1OC"
value = "0%"

[[record]]
molecule = "Clc1ccccc1CCNc1ccnc2c(Cl)cccc12"
value = "0%"

[[record]]
molecule = "Cc1ccc(C)c2c(NCCc3ccc(Cl)cc3)ccnc12"
value = "0%"

[[record]]
molecule = "OC(CNc1ccnc2c(F)cccc12)c1ccc2ccccc2c1 (centres unmarked)"
value = "80%"

[[record]]
molecule = "Fc1cccc2c(NCCc3cccc(Oc4ccccc4)c3)ccnc12"
value = "0%"

